Each recorded value in this set is attributed to patent US4798807A.

Target: monoclonal antibody DD-3
Test: Competition ELISA with monoclonal antibody DD-3
Format: binding, BALB/c mice
Conditions: competitor vs monoclonal antibody DD-3; plate coated with A-triCDD-RSA
value.type: I50 (inhibits antibody binding by 50%)

INSERT INTO assay_data (compound, value_type, measured) VALUES
  ('Clc1c(Cl)c(Cl)c2c(oc3c(Cl)c(Cl)c(Cl)c(Cl)c32)c1Cl', 'I50 (inhibits antibody binding by 50%)', '> 200 ng');

Pending compound:
QUERY: Sample O=S1OCC2C(CO1)C1(Cl)C(Cl)=C(Cl)C2(Cl)C1(Cl)Cl (stereo not shown) [Endosulfan] — what was its I50 (inhibits antibody binding by 50%)?
RESULT: > 2000 ng

----------
I50 (inhibits antibody binding by 50%) reference
Molecular target: monoclonal antibody DD-3
Assay: Competition ELISA with monoclonal antibody DD-3
Type: binding, BALB/c mice
Conditions: competitor vs monoclonal antibody DD-3; plate coated with A-triCDD-RSA

INSERT INTO results (compound, value_type, measured) VALUES
  ('Oc1cc(Cl)c(Cl)cc1Cl', 'I50 (inhibits antibody binding by 50%)', '> 2000 ng'),
  ('Clc1ccccc1-c1cc(Cl)c(Cl)c(Cl)c1Cl', 'I50 (inhibits antibody binding by 50%)', '> 200 ng'),
  ('ClC1=C(Cl)C2(Cl)C3C(Cl)C=CC3C1(Cl)C2(Cl)Cl (stereo not shown)', 'I50 (inhibits antibody binding by 50%)', '> 2000 ng'),
  ('Clc1cc(Cl)c(-c2ccccc2Cl)c(Cl)c1', 'I50 (inhibits antibody binding by 50%)', '> 200 ng'),
  ('Clc1ccc(Cl)c(-c2c(Cl)c(Cl)c(Cl)c(Cl)c2Cl)c1Cl', 'I50 (inhibits antibody binding by 50%)', '> 200 ng'),
  ('O=[N+]([O-])c1cc(Cl)ccc1Cl', 'I50 (inhibits antibody binding by 50%)', '2000 ng');

QUERY: Sample Clc1ccc2c(c1)Oc1c(Cl)c(Cl)c(Cl)c(Cl)c1O2 — what was its I50 (inhibits antibody binding by 50%)?
RESULT: > 2 ng

----------
I50 (inhibits antibody binding by 50%) reference
Target: monoclonal antibody DD-6
Test: Competition ELISA with monoclonal antibody DD-6
Assay type: binding, Biozzi mice
Conditions: competitor vs monoclonal antibody DD-6; plate coated with A-triCDD-RSA

Previously resolved entries follow.
INSERT INTO assay_data (molecule, value_type, measured) VALUES
  ('Clc1ccc(-c2cc(Cl)c(Cl)c(Cl)c2Cl)c(Cl)c1', 'I50 (inhibits antibody binding by 50%)', '> 200 ng'),
  ('Clc1ccc(-c2ccc(Cl)c(Cl)c2)cc1Cl', 'I50 (inhibits antibody binding by 50%)', '100 ng'),
  ('Clc1ccc(Cl)c(-c2c(Cl)c(Cl)c(Cl)c(Cl)c2Cl)c1', 'I50 (inhibits antibody binding by 50%)', '> 200 ng'),
  ('Clc1cc(Cl)c2c(c1)Oc1cc(Cl)c(Cl)cc1O2', 'I50 (inhibits antibody binding by 50%)', '1 ng'),
  ('O=C1C2(Cl)C3(Cl)C4(Cl)C(Cl)(Cl)C5(Cl)C3(Cl)C1(Cl)C5(Cl)C24Cl (centres unmarked)', 'I50 (inhibits antibody binding by 50%)', '> 2000 ng');

QUERY: Sample O=S1OCC2C(CO1)C1(Cl)C(Cl)=C(Cl)C2(Cl)C1(Cl)Cl (centres unmarked) [Endosulfan] — what was its I50 (inhibits antibody binding by 50%)?
RESULT: > 2000 ng

QUERY: Sample Clc1cc2c(cc1Cl)Oc1cc(Cl)c(Cl)cc1O2 — what was its I50 (inhibits antibody binding by 50%)?
RESULT: 6 ng

QUERY: Sample Clc1ccccc1-c1cc(Cl)c(Cl)c(Cl)c1Cl — what was its I50 (inhibits antibody binding by 50%)?
RESULT: > 200 ng

----------
I50 (inhibits antibody binding by 50%) reference
Molecular target: monoclonal antibody DD-3
Assay: Competition ELISA with monoclonal antibody DD-3
Assay type: binding, BALB/c mice
Conditions: competitor vs monoclonal antibody DD-3; plate coated with A-triCDD-RSA

Previously resolved entries follow.
INSERT INTO assay_data (compound, measured) VALUES
  ('O=C1C2(Cl)C3(Cl)C4(Cl)C(Cl)(Cl)C5(Cl)C3(Cl)C1(Cl)C5(Cl)C24Cl (stereo not drawn) [Kepon]', '> 2000 ng'),
  ('Brc1cc2c(cc1Br)Oc1cc(Br)c(Br)cc1O2 [2,3,7,8-tetra-Bromo-DD]', '1 ng'),
  ('Clc1cc2c(cc1Cl)Oc1cc(Cl)c(Cl)cc1O2 [2,3,7,8-TCDD, 2,3,7,8-tetrachlorodibenzo-p-dioxin]', '3 ng');

Pending compound:
QUERY: Sample Oc1ccc(Cl)cc1Cl [2,4-Dichlorophenol] — what was its I50 (inhibits antibody binding by 50%)?
RESULT: > 2000 ng

----------
Molecular target: monoclonal antibody DD-4
Assay: Competition ELISA with monoclonal antibody DD-4
Format: binding, BALB/c mice
Conditions: competitor vs monoclonal antibody DD-4; plate coated with A-triCDD-RSA
value.type: I50 (inhibits antibody binding by 50%)

Previously resolved entries follow.
INSERT INTO assay_data (compound, measured) VALUES
  ('Clc1ccc(-c2cc(Cl)c(Cl)c(Cl)c2Cl)c(Cl)c1', '> 200 ng'),
  ('Clc1c(Cl)c(Cl)c2c(c1Cl)Oc1c(Cl)c(Cl)c(Cl)c(Cl)c1O2', '> 200 ng'),
  ('Clc1c(Cl)c(Cl)c2c(oc3c(Cl)c(Cl)c(Cl)c(Cl)c32)c1Cl', '> 200 ng'),
  ('ClC1=C(Cl)C2(Cl)C3C(Cl)C=CC3C1(Cl)C2(Cl)Cl (stereo not drawn)', '> 2000 ng');

QUERY: Sample Oc1c(Cl)c(Cl)c(Cl)c(Cl)c1Cl — what was its I50 (inhibits antibody binding by 50%)?
RESULT: > 2000 ng

QUERY: Sample Clc1cc2c(cc1Cl)Oc1c(cc(Cl)c(Cl)c1Cl)O2 — what was its I50 (inhibits antibody binding by 50%)?
RESULT: 0.02 ng

QUERY: Sample Clc1cc(Cl)c2c(c1)Oc1cc(Cl)c(Cl)cc1O2 — what was its I50 (inhibits antibody binding by 50%)?
RESULT: > 2 ng

QUERY: Sample ClC1=C(Cl)C2(Cl)C3C(Cl)C(Cl)CC3C1(Cl)C2(Cl)Cl (stereo not drawn) — what was its I50 (inhibits antibody binding by 50%)?
RESULT: > 2000 ng

QUERY: Sample Clc1cc(Cl)c2c(c1Cl)Oc1ccccc1O2 — what was its I50 (inhibits antibody binding by 50%)?
RESULT: > 200 ng

----------
Molecular target: monoclonal antibody DD-5
Test: Competition ELISA with monoclonal antibody DD-5
Type: binding, Biozzi mice
Conditions: competitor vs monoclonal antibody DD-5; plate coated with A-triCDD-RSA
value.type: I50 (inhibits antibody binding by 50%) (ng)
The figure you give is taken to be in ng; do not add the unit.

INSERT INTO assay_data (smiles_data, system_tested, value_type, unit_abbreviation, measured) VALUES
  ('O=[N+]([O-])c1cc(Cl)ccc1Cl', 'monoclonal antibody DD-5', 'I50 (inhibits antibody binding by 50%)', 'ng', 2000);

QUERY: Sample Clc1cc2c(cc1Cl)Oc1cc(Cl)c(Cl)cc1O2 — what was its I50 (inhibits antibody binding by 50%)?
RESULT: 0.5

----------
Target: monoclonal antibody DD-1
Assay: Competition ELISA with monoclonal antibody DD-1
Type: binding, Biozzi mice
Conditions: competitor vs monoclonal antibody DD-1; plate coated with A-triCDD-RSA
value.type: I50 (inhibits antibody binding by 50%)

Previously resolved entries follow.
INSERT INTO results (molecule, value_type, measured) VALUES
  ('Oc1cc(Cl)c(Cl)cc1Cl', 'I50 (inhibits antibody binding by 50%)', '800 ng'),
  ('ClC1=C(Cl)C2(Cl)C3C(Cl)C=CC3C1(Cl)C2(Cl)Cl (stereo not drawn)', 'I50 (inhibits antibody binding by 50%)', '> 2000 ng'),
  ('Brc1cc2c(cc1Br)Oc1cc(Br)c(Br)cc1O2', 'I50 (inhibits antibody binding by 50%)', '0.05 ng'),
  ('Clc1ccc(-c2cc(Cl)c(Cl)c(Cl)c2Cl)c(Cl)c1', 'I50 (inhibits antibody binding by 50%)', '> 200 ng'),
  ('Clc1cc2c(cc1Cl)Oc1cc(Cl)c(Cl)cc1O2', 'I50 (inhibits antibody binding by 50%)', '1 ng');

QUERY: Sample Clc1cc(Cl)c2c(c1)Oc1cc(Cl)c(Cl)cc1O2 — what was its I50 (inhibits antibody binding by 50%)?
RESULT: 0.2 ng

QUERY: Sample Clc1ccc(Cl)c(-c2c(Cl)c(Cl)c(Cl)c(Cl)c2Cl)c1Cl — what was its I50 (inhibits antibody binding by 50%)?
RESULT: > 200 ng

QUERY: Sample Clc1ccccc1 — what was its I50 (inhibits antibody binding by 50%)?
RESULT: > 2000 ng

QUERY: Sample Clc1ccccc1-c1cc(Cl)c(Cl)c(Cl)c1Cl — what was its I50 (inhibits antibody binding by 50%)?
RESULT: > 200 ng

QUERY: Sample Clc1ccc(-c2c(Cl)cc(Cl)c(Cl)c2Cl)c(Cl)c1Cl — what was its I50 (inhibits antibody binding by 50%)?
RESULT: > 200 ng

QUERY: Sample Clc1c(Cl)c(Cl)c2c(c1Cl)Oc1c(Cl)c(Cl)c(Cl)c(Cl)c1O2 — what was its I50 (inhibits antibody binding by 50%)?
RESULT: > 200 ng

QUERY: Sample O=C(O)COc1ccc(Cl)cc1Cl — what was its I50 (inhibits antibody binding by 50%)?
RESULT: > 2000 ng

QUERY: Sample ClC1=C(Cl)C2(Cl)C3C4C=CC(C4)C3C1(Cl)C2(Cl)Cl (stereo not drawn) — what was its I50 (inhibits antibody binding by 50%)?
RESULT: > 2000 ng

QUERY: Sample ClC1=C(Cl)C2(Cl)C3C(Cl)C(Cl)CC3C1(Cl)C2(Cl)Cl (stereo not drawn) — what was its I50 (inhibits antibody binding by 50%)?
RESULT: > 2000 ng

QUERY: Sample O=[N+]([O-])c1cc(Cl)ccc1Cl — what was its I50 (inhibits antibody binding by 50%)?
RESULT: 90 ng

QUERY: Sample Oc1c(Cl)c(Cl)c(Cl)c(Cl)c1Cl — what was its I50 (inhibits antibody binding by 50%)?
RESULT: > 2000 ng

QUERY: Sample Clc1cc2c(cc1Cl)Oc1c(cc(Cl)c(Cl)c1Cl)O2 — what was its I50 (inhibits antibody binding by 50%)?
RESULT: 0.2 ng
